Tested on: T-47D breast
testName: NCI-60 one-dose screen, 48 h (100 = growth as untreated, 0 = no growth, -100 = all killed)
experimentalContext: 10 µM unless noted
Compounds without any hit were thinned out: in the full panel of roughly 83,000, 20% have a hit.
Entries whose growth is below 20% take yes (1); entries at or above 20% take no (0).

Previously resolved entries follow.
compound	assignedCategory
COc1cc2c3c(cc4c5c(ccc4c3c1OC)OCO5)N(CCN(C)C)C2=O	yes (1)
Clc1ccc2[nH]cc(-c3nn4cc(-c5ccncc5)nc4s3)c2c1	yes (1)
Nc1ccc(Nc2ncnc3sc4c(c23)CCN(Cc2ccccc2)C4)cc1	no (0)
COc1ccc(/C=N\NC(=O)c2cnn(CC(O)c3ccccc3)c2N)cc1OCc1ccc(Cl)cc1 (configuration not stated)	no (0)

Q: Dear colleague, could you confirm whether growth of `CCOC(=O)c1cccnc1Nc1ccc(NC(=O)Nc2ccc(Cl)c(C(F)(F)F)c2)cc1` falls below 20%? Thanks.
Ans: yes (1)

Q: Could you do the same for `N#Cc1c(-c2cccs2)cc(-c2cnccn2)nc1SCC(=O)N/N=C/c1ccccc1` , please?
Ans: no (0)

Q: Also `N/C(=N\C(N)=N\c1nc2ccccc2s1)c1ccc(Cl)cc1` ?
Ans: no (0)

Q: One more compound: `COc1ccc2[nH]cc(-c3nn4cc(-c5ccncc5)nc4s3)c2c1`
Ans: yes (1)

Q: Now the same for `CN(C)CC(=O)Nc1nc(-c2cccc(NS(=O)(=O)c3cccc4c(N(C)C)cccc34)c2)cs1`
Ans: no (0)

Q: Queued: `Brc1cc(-c2cc(-c3ccc4c(c3)OCCO4)[nH]n2)cs1`
Ans: no (0)

Q: Next compound up: `COc1cc(OC)cc(-c2cc(-c3c[nH]c4ccccc34)nc(-c3c[nH]c4ccccc34)c2C#N)c1`
Ans: no (0)

Q: Now the same for `O=C(/C=C/c1ccc(Cl)c(Cl)c1)Nc1ncc(Cc2ccc(Cl)c(Cl)c2)s1`
Ans: no (0)

Q: Same question, `COc1ccccc1N1CCN(C2=C(Cl)C(=O)c3ncccc3C2=O)CC1` this time
Ans: yes (1)

Q: Repeat for the following compound: `CN(C)c1cccc2c(S(=O)(=O)Nc3cccc(-c4csc(NC(=O)CCCCCN5CCN(CCO)CC5)n4)c3)cccc12`
Ans: no (0)

Q: Can you handle `C#CCOc1cccc(-c2nc(N)nc(Nc3ccccc3SSc3ccccc3Nc3nc(N)nc(-c4cccc(OCC#C)c4)n3)n2)c1` next?
Ans: no (0)
